B1: Pistol ribozyme (parent)
chain: GGGUCGUUGUUCCAUAAUCGCGUGGAUAUGGCACGCAAGUUUCUACCGGGCACCGUAAAUGUCCGACUGGAGCCGUUCGGGCGGCUAUAAACAGACCUCAGGCCCGAAGCGUGGCGGCACCUGCCGCCGGUGGUAAAAAAGAUCGGAAGAGCACACGUCU

Variants of: B1
protocolDetails: aptazyme ON/OFF ratio, guanine; higher = stronger switching; co-transcriptional cleavage with and without guanine
observationType: aptazyme ON/OFF ratio

• U7G U8G G9U U10G U11G C12G C13A = 1.09
• U8G G9A = 1.64
• U7G U8A G9U U10G C12G = 1.07
• U7A U8C G9U U11A C12U C13A = 1.37
• U8A G9A U10C U11C C13A = 1.03
• U7G G9C U10C C13A = 1.14
• U7G G9U U10A U11C C12G C13G = 1.04
• U7C G9A U10G C12A = 1.15
• U7A U8G G9U U10C U11G C12A = 1.5
• U7A U8A G9A U11A C12A C13G = 1.21
• U7C G9A U10C U11C C13A = 1.01
